System: human retinal capillary endothelial cells (HRCECs)
Protocol Details: MTT proliferation inhibition on HRCECs
Type: cell-based
Test Settings: 48 h, dose 0.2 μM, mean±SD
Peptide text beside a SMILES is read from it. * marks the point of attachment. X58 = O=C1C=CC(=O)N1c1cccc(CCCCCCCCCCCC(=O)*)c1; X59 = O=C1C=CC(=O)N1c1cccc(CCCCCCCCC(=O)*)c1; X72 = O=C1C=CC(=O)N1c1ccccc1CCCCCCCCCCC(=O)*; X55 = O=C1C=CC(=O)N1c1ccccc1CCCCCCCCC(=O)*; X63 = O=C1C=CC(=O)N1c1ccccc1CCCCCCC(=O)*; X75 = O=C1C=CC(=O)N1c1cccc(CC(=O)*)c1
The compounds listed here are annotated with their A570 nm-A630 nm.
# respond with the number and nothing more

QUERY: Quick one: A570 nm-A630 nm of C[C@H](NC(=O)CNC(=O)[C@H](CCCNC(=N)N)NC(=O)CCCCCCCCCCCc1cccc(N2C(=O)C=CC2=O)c1)C(=O)N[C@@H](CC(=O)O)C(=O)N[C@@H](CCCNC(=N)N)C(=O)N[C@@H](C)C(=O)NCC(=O)NCC(=O)NCC(=O)NCC(=O)N[C@@H](CCCNC(=N)N)C(=O)NCC(=O)N[C@@H](CC(=O)O)C(=O)O [X35] (X58-RGADRAGGGGRGD-OH) ?
RESULT: 0.5624

QUERY: Reported A570 nm-A630 nm, compound C[C@H](NC(=O)CNC(=O)[C@H](CCCNC(=N)N)NC(=O)CCCCCCc1ccccc1N1C(=O)C=CC1=O)C(=O)N[C@@H](CC(=O)O)C(=O)N[C@@H](CCCNC(=N)N)C(=O)N[C@@H](C)C(=O)NCC(=O)NCC(=O)NCC(=O)NCC(=O)N[C@@H](CCCNC(=N)N)C(=O)NCC(=O)N[C@@H](CC(=O)O)C(=O)O [X18] (X63-RGADRAGGGGRGD-OH) : ____
RESULT: 0.5051

QUERY: Item C[C@H](NC(=O)CNC(=O)[C@H](CCCNC(=N)N)NC(=O)CCCCCCCCc1cccc(N2C(=O)C=CC2=O)c1)C(=O)N[C@@H](CC(=O)O)C(=O)N[C@@H](CCCNC(=N)N)C(=O)N[C@@H](C)C(=O)NCC(=O)NCC(=O)NCC(=O)NCC(=O)N[C@@H](CCCNC(=N)N)C(=O)NCC(=O)N[C@@H](CC(=O)O)C(=O)O [X32] (X59-RGADRAGGGGRGD-OH) has what recorded A570 nm-A630 nm?
RESULT: 0.4030

QUERY: Fill in: A570 nm-A630 nm of C[C@H](NC(=O)CNC(=O)[C@H](CCCNC(=N)N)NC(=O)CCCCCCCCCCc1ccccc1N1C(=O)C=CC1=O)C(=O)N[C@@H](CC(=O)O)C(=O)N[C@@H](CCCNC(=N)N)C(=O)N[C@@H](C)C(=O)NCC(=O)NCC(=O)NCC(=O)NCC(=O)N[C@@H](CCCNC(=N)N)C(=O)NCC(=O)N[C@@H](CC(=O)O)C(=O)O [X22] (X72-RGADRAGGGGRGD-OH) is ___
RESULT: 0.4425

QUERY: What measured A570 nm-A630 nm goes with C[C@H](NC(=O)CNC(=O)[C@H](CCCNC(=N)N)NC(=O)Cc1cccc(N2C(=O)C=CC2=O)c1)C(=O)N[C@@H](CC(=O)O)C(=O)N[C@@H](CCCNC(=N)N)C(=O)N[C@@H](C)C(=O)NCC(=O)NCC(=O)NCC(=O)NCC(=O)N[C@@H](CCCNC(=N)N)C(=O)NCC(=O)N[C@@H](CC(=O)O)C(=O)O [X25] (X75-RGADRAGGGGRGD-OH) ?
RESULT: 0.4847

Continuing:
QUERY: I would be grateful if you could share the reported A570 nm-A630 nm for C[C@H](NC(=O)CNC(=O)[C@H](CCCNC(=N)N)NC(=O)CCCCCCCCc1ccccc1N1C(=O)C=CC1=O)C(=O)N[C@@H](CC(=O)O)C(=O)N[C@@H](CCCNC(=N)N)C(=O)N[C@@H](C)C(=O)NCC(=O)NCC(=O)NCC(=O)NCC(=O)N[C@@H](CCCNC(=N)N)C(=O)NCC(=O)N[C@@H](CC(=O)O)C(=O)O [X20] (X55-RGADRAGGGGRGD-OH) .
RESULT: 0.5268
